Each item that follows carries a reported melting point.

Example results:
compound=CCOC(=O)C(CC(=O)c1cccc(F)c1)(NC(C)=O)C(=O)OCC measured_parameter="melting point" observed_measurement="121 to 123 °C"
compound=O=C(O)CCc1cc2nc(C(F)(F)F)ccc2n1S(=O)(=O)c1cccc2ccccc12 measured_parameter="melting point" observed_measurement="116 to 117 °C"

# lookup: melting point of CN1c2ccc(-c3ccccc3)cc2Sc2cc(-c3ccccc3)ccc21
239 to 241 °C

Record: CONS(=O)(=O)c1cccc(C(F)(F)F)c1
78 to 81 °C

Record: Cc1cccc2c1nc(-c1ccccc1[N+](=O)[O-])n2CC(C)O (stereo not given)
171 to 172 °C

Record: CCc1cccc2c(C=O)cc(Cl)c(O)c12
139 to 142 °C

Record: CS(=O)(=O)c1ccc(Oc2cc(OCc3cccc(Cl)n3)c3[nH]c(C(N)=O)cc3c2)cc1
259 to 260 °C

Record: COCCN(C)Cc1ccc(NC(=O)C2=Cc3cc(-c4ccc(C)cc4)ccc3OCC2)cc1
121 to 122 °C

Record: O=C(Cl)COc1nn(Cc2ccccc2)c2ccccc12
78 to 79 °C

* * *

Each item that follows carries a reported melting point.

compound=COc1ccc(-c2nc(CCl)cs2)cc1 observed_measurement="125 to 128 °C"
compound=CCOC(=O)c1c(C)nc2c(ncn2C)c1OCCC(C)C observed_measurement="64 to 66 °C"
compound=CN(C)C(=O)c1cc2c(c(C(=O)O)c1)OC(c1ccccc1)(c1ccccc1)O2 observed_measurement="207 to 208 °C"
compound=CC(C)c1nc(-c2ccccc2)c(F)c(-c2ccc(F)cc2)c1C=O observed_measurement="136 to 137 °C"
compound=CCOC(=O)C(=O)c1cc(Cl)cc2cccnc12 observed_measurement="107 to 110 °C"

# lookup: melting point of CC12C(=CCC3C1CCC1(C)C3CCC13OCCO3)CC(O)CC2O (stereo not given)
205 to 206 °C

Record: O=[N+]([O-])c1cccc(-c2cc3c(O)ncnc3o2)c1
> 300 °C

Record: C(=C1CNCCN1)c1ccccc1
80 to 81 °C

Record: Cc1ccc(C(=O)NC(NC(=NC#N)Nc2ccccc2F)C(Cl)(Cl)Cl)cc1 (stereo not given)
220 to 222 °C

Record: CC(C)(C)OC(=O)Nc1nc(/C(=N/OC(c2ccccc2)(c2ccccc2)c2ccccc2)C(=O)O)cs1
157 to 158 °C

* * *

Each item that follows carries a reported melting point.

Example results:
molecule=CCOCc1nc(C(C)(C)O)c(C(=O)OCOC(=O)C(C)(C)C)n1Cc1ccc(-c2ccccc2-c2nnn[nH]2)cc1 observed_measurement="56 to 61 °C"
molecule=CCCCc1oc2ccccc2c1C(=O)N(CC)Cc1ccc2cc(OCc3nnn[nH]3)ccc2c1 observed_measurement="78 to 84 °C"

# lookup: melting point of CCC(CCCNC(=O)Nc1cccnc1)NC(=O)Nc1cccnc1 (centres undefined)
218 to 219 °C

Record: Cc1cc(N=CN(C)C)c(C)cc1Cc1cccc(C(F)(F)F)c1
75 to 77 °C

Record: CC(=O)NC[C@H]1CN(c2ccc(C3CCN(c4nnc(C)s4)CC3)c(F)c2)C(=O)O1
193 to 195 °C

Record: Cc1nc(N)nc(N)c1-c1ccc(Cl)cc1Cl
222 °C

Record: COC(=O)c1cccc(-c2cc(-c3ccc(Cl)cc3)on2)c1
157 to 158 °C

Record: CS(=O)(=O)c1ccc(-c2cnn(-c3ccc([N+](=O)[O-])s3)c(=O)c2-c2ccc(F)cc2)cc1
252 to 253 °C

Record: Brc1cncc2nc(SCc3ccccc3)nn12
94 to 95 °C

* * *

Each item that follows carries a reported melting point.

Example results:
compound=Nc1ccccc1-c1cc[nH]n1 measured_parameter="melting point" observed_measurement="122 to 123 °C"
compound=ON=C1COc2cc(OCc3c(F)cccc3F)ccc21 measured_parameter="melting point" observed_measurement="166 to 172 °C"
compound=CCCCn1c(=O)c2cn(S(=O)(=O)c3ccc(OC(F)(F)F)cc3)nc2n(CCCC)c1=O measured_parameter="melting point" observed_measurement="135 to 137 °C"
compound=CCCn1c(C)c2c(c1C)C(=O)C(C)=C(C)C2=O measured_parameter="melting point" observed_measurement="165 to 167 °C"
compound=O=C1c2ccccc2C(=O)N1CCCn1cc(S(=O)(=O)c2ccccc2)c2ccccc21 measured_parameter="melting point" observed_measurement="205 to 206 °C"
compound="CCOC(=O)C1COc2c(C=O)cc(Cl)c(Cl)c2O1 (centres undefined)" measured_parameter="melting point" observed_measurement="110 to 113 °C"

# lookup: melting point of C[C@](O)(COc1ccc(C#N)cc1)C(=O)Nc1ccc(C#N)c(C(F)(F)F)c1
92 to 94 °C

Record: N#CNC(=Nc1ccncc1)NCCCCOc1ccccc1
131 °C

Record: Cc1ccc(S(=O)(=O)N(C)c2ccc(Br)cc2[N+](=O)[O-])cc1
82.5 to 83.5 °C

Record: CCCc1nc2c(N)nc3cc(Br)ccc3c2s1
160 to 163 °C

Record: Cc1noc(C)c1-c1cn(Cc2ccccc2)c(=O)c2cnccc12
174 to 177 °C

Record: COC(=O)Cc1ccc(OCCNC(=O)C2Cc3ccccc3N2S(=O)(=O)c2ccc(-c3ccc(F)cc3)cc2)c(Cl)c1 (centres undefined)
68 to 76 °C

Record: COC(=O)CCCCc1ccc(NC(=O)N(CCO)C2CCN(Cc3ccccc3)CC2)cc1
118 to 120 °C

* * *

measured-parameter: melting point

compound="Cc1nc(N)sc1S(=O)(=O)N1CCC(O)C1 (racemic)" observed_measurement="165 °C"

# lookup: melting point of Cc1onc(-c2ccccc2)c1-c1cc2ccccc2[nH]1
145 to 146 °C

Record: CN(C)c1nnc(-c2ccc(S(C)=O)cc2)c(-c2ccc(S(C)=O)cc2)n1 (configuration not stated)
199 to 204 °C

Record: CC(O)CNCc1nc2cc(-c3ccccc3)nnc2c2ccccc12 (configuration not stated)
161 to 162 °C

* * *

measured-parameter: melting point

Example results:
compound=COC(=O)[C@H](Cc1ccc(NC(=O)c2c(Cl)cccc2Cl)cc1)NC(=O)OC(C)(C)C observed_measurement="148 to 151 °C"
compound="Cc1nc(O)nc(C)c1N1CCCn2c1nc1c(Cl)ccc(C(OC(F)F)C(F)(F)F)c12 (stereo not given)" observed_measurement="208 to 210 °C"
compound=O=C(CNC(=O)C1CCCCC1)c1ccccc1 observed_measurement="114 to 115 °C"
compound=COC(=O)c1nc(S)n(C(c2ccccc2)c2ccccc2)c1C(=O)OC observed_measurement="154 °C"
compound="N#CC(OC1OC2C(Br)C3CC1C2C3)c1cccc(Oc2ccccc2)c1 (stereo not given)" observed_measurement="65 °C"
compound=N[C@H](Cc1ccc2ccccc2c1)C(=O)O observed_measurement="242 to 244 °C"
compound=Cn1c(CC(=O)O)ccc1C(=O)c1ccccc1 observed_measurement="144 to 145 °C"
compound="COc1ccc(CSC2CC(=O)N2CC(=O)NCCCCCCc2ccc(F)cc2)cc1 (stereo not given)" observed_measurement="53 to 55 °C"
compound="O=[N+]([O-])C(CN1CCN(c2ccccc2)CC1)c1ccccc1 (stereo not given)" observed_measurement="76 °C"

Now examine the next entry.
# lookup: melting point of COc1ccc2c(c1)-c1noc(N3CCCNCC3)c1CC2
106 to 109 °C

* * *

Each item that follows carries a reported melting point.

Example results:
molecule=Cc1oc(-c2ccco2)nc1COc1ccc(CO)cc1Cl measured_parameter="melting point" observed_measurement="143 to 144 °C"
molecule=CCc1nn(CC)c(C(N)=O)c1Cc1ccc2oc(-c3ccccc3C(=O)O)c(Br)c2c1 measured_parameter="melting point" observed_measurement="171 to 172 °C"
molecule=Oc1cccc2oc(Cc3cccc(C(F)(F)F)c3)nc12 measured_parameter="melting point" observed_measurement="157 to 158 °C"
molecule=O=c1cc2c(nn1-c1ccc(Cl)cc1)-c1cc(Cl)ccc1SCC2 measured_parameter="melting point" observed_measurement="215 to 217 °C"
molecule=N#Cc1cnn2c1N(C(=O)CN1CCN(C(=O)Nc3cccc(Cl)c3)CC1)CC=C2c1cccc(C(F)(F)F)c1 measured_parameter="melting point" observed_measurement="182 to 185 °C"
molecule=CN(C)S(=O)(=O)N[C@@H](Cc1ccc(Nc2nccc3cnccc23)cc1)C(=O)O measured_parameter="melting point" observed_measurement="211 °C"

# lookup: melting point of COc1ccc2cc(-c3cnc(-c4cn(Cc5ccccc5)c5ccccc45)o3)ccc2c1
198 to 199 °C

Record: COC(=O)C1Oc2ccc(C)cc2C(C)(c2ccccc2)O1 (centres undefined)
100 °C

Record: NCCN1CCC(Nc2nc3cncnc3n2Cc2ccc(F)cc2)CC1
146 °C

Record: CCCCOC(=O)N(C)S(=O)(=O)c1cc([N+](=O)[O-])c(N(CCC)CCC)c([N+](=O)[O-])c1
99 to 101 °C

Record: O[C@@H]1CN=C(c2ccccc2)O[C@H]1c1ccccc1 (racemic)
135 °C

Record: CN(C)c1ccc(-c2cc(N(C(=O)OC(C)(C)C)C(=O)OC(C)(C)C)nn2C(=O)OC(C)(C)C)cc1
64 to 65 °C

Record: COC(=O)c1ccc2c(nc(C)n2Cc2ccccc2)c1C1=NC(C)(C(C)C)C(=O)N1 (centres undefined)
194 to 196 °C

Record: O=C(Nc1ccc(Oc2ccccc2F)nc1)N1CCc2ccccc2CC1
170 to 172 °C
